- System: Vero E6 infected with SARS-CoV-2
- assayExplanation: morphology score (similarity to uninfected cells); higher = more like uninfected cells
- particulars: 24 h
Classification scheme (morphology score): A = under 0.007, B = from 0.007 up to 0.1, C = 0.1 and over

Hi there! Could you help me figure out the category for COc1ccc(CC(C)NCC(O)c2ccc(O)c(NC=O)c2)cc1 (stereo not given) [formoterol] (10 µM) please?
B

Field: class (morphology score) — entry: CC(C)(C)NCC(O)CSc1nc(-c2ccc(C(N)=O)s2)cs1 (stereo not given) [arotinolol] (10 µM)
B

New cases:
Determine which band this compound sits in: O=C(c1ccc(/C=C/c2n[nH]c3ccccc23)cc1)N1CCNCC1 (10 µM)
C
